From various publications: IC50 for Cytochrome P450 2D6 (Homo sapiens).

Record N#Cc1ccc(CS(=O)(=O)c2ccc3nc(N)sc3c2)cc1 . Reported IC50: < 10 µM

Record O=C(O)CCC1(c2ccc(-c3ccccc3)cc2)CCCN(C(=O)Nc2ccc(OC(F)(F)F)cc2)C1 (stereo not drawn) . Reported IC50: > 10 µM

Record N#Cc1cc(F)cc(-c2ccc3ncc(-c4cc(F)cc(F)c4)c(N4CCC(N)CC4)c3c2)c1O . Reported IC50: > 10 µM

====

From various publications: IC50 for Cytochrome P450 2D6 (Homo sapiens, UniProt P10635).

Record CC(=O)Nc1cccc(O[C@H]2c3ccccc3C[C@@H]2N2CCC[C@@H](N)C2)c1 . Reported IC50: 5.1 µM

Record O=C(O)CCCCC1(c2ccccc2)CCCN(C(=O)Nc2ccc(Cl)cc2)C1 (configuration not stated) . Reported IC50: > 10 µM

Record COc1cc(F)c(-c2c(C)nn3c(C(F)(F)F)cc(C)nc23)c(F)c1 . Reported IC50: > 30 µM

Record c1cnc2c(c1)CN[C@@H](CN(CCCN1CCNCC1)[C@H]1CCCc3cccnc31)C2 . Reported IC50: > 20 µM

Record COc1cc(-c2ccnc(C)c2)ccc1NS(=O)(=O)c1cc(C(F)(F)F)cc(C(F)(F)F)c1 . Reported IC50: 1.9 µM

Record CCCNC1CN(c2ccnc(N)n2)C1.O.O=C(O)/C=C/C(=O)O . Reported IC50: > 25 µM

Record O=C(O)c1cccc(-c2ccc(/C=N/NC(=O)C3COc4ccccc4O3)o2)c1 (configuration not stated) . Reported IC50: > 50 µM

Record Cn1ncc2c(NC(P(=O)(O)O)P(=O)(O)O)nc(-c3cccc(C(=O)Nc4ccc(C(F)(F)F)cc4)c3)nc21 . Reported IC50: > 40 µM

Record c1ccc(C2CCCc3sc(Nc4ccc(-c5ccnnc5)cc4)nc32)cc1 (configuration not stated) . Reported IC50: < 0.5 µM

Record CC(C)c1nc2ccc(-c3ccc(F)cc3)cc2c(=O)n1C[C@H]1CCCN(C(C)C)C1 . Reported IC50: 0.15 µM

Record C/C1=C\CC(C)(C)/C=C/C(=O)/C(C)=C/[C@H](O)C1 . Reported IC50: > 100 µM

Record Fc1ccc(Oc2nccc3[nH]ccc23)cc1 . Reported IC50: > 20 µM

Record O=C(O)CCC(=O)N1CCc2cc(-c3noc(-c4cc(C(F)(F)F)cc(C(F)(F)F)c4)n3)ccc21 . Reported IC50: > 50 µM

Record NC(=O)[C@@H]1CCCN1C(=O)c1ccc(NC(=O)Nc2ccc(-c3nc(N4CCOCC4)nc(N4CCOCC4)n3)cc2)cc1 . Reported IC50: > 50 µM

Record CC1(C)C[C@@H](NC(=O)Nc2cccc3cnccc23)c2cc(F)ccc2O1 . Reported IC50: < 0.08 µM

Record CN(C)Cc1ccc2c(c1)CCN(C(=O)c1cc3cc(Cl)ccc3n1C)C2 . Reported IC50: 2.9 µM

Record CN(C)CCn1c(=O)n(C2CCN(C(=O)C3CCN(Cc4ccncc4)CC3)CC2)c2ccccc21 . Reported IC50: 10.5 µM

Record N=C(N)c1ccc(OCCCCCOc2ccc(C(=N)N)cc2)cc1 . Reported IC50: 10 to 25 µM

Record CCN(CCCc1ccc(F)cc1)CC1OC(=O)N(C)CC1(C)NC(=O)Nc1cccc(-c2nnnn2C)c1 (mixture of isomers; 23a) . Reported IC50: 5.9 µM

Record CC(C)(C)CC(c1ccc(CC(=O)O)cc1-c1ccc(C(F)(F)F)cc1)N1CCC(C(F)(F)F)CC1 (racemic) . Reported IC50: > 10 µM

Record O=C1CC2(CCN(C(=O)NC3CCc4ccccc4C3)CC2)Oc2ccccc21 (racemic) . Reported IC50: > 10 µM

Record CC(C)N1CCC(Oc2ccc3c(c2)cc2n3CCN(Cc3ccncc3)C2=O)CC1 . Reported IC50: > 50 µM
